# System: α5β1 integrin mediated adhesion of K562 cells
# MEASUREMENT_DESCRIPTION: In vitro cell adhesion assay (b): inhibition of α5β1 integrin mediated adhesion of K562 cells to fibronectin fragment Fn9-10
# Assay type: cell-based, human
# MEASUREMENT_CONTEXT: Homo sapiens, K562, single determinations listed in brackets under the geometric mean (n = 3); read-out: Adhesion Assay (b) IC50, individual measured values
VALUE_TYPE: pIC50
One number for each entry, as −log10 of the molar value.

Inquiry: Give pIC50 (α5β1 integrin mediated adhesion of K562 cells) of the following molecule: O=C(N[C@@H](Cc1ccc(CCCc2ccc3c(n2)NCCC3)s1)C(=O)O)c1c(Cl)cncc1Cl [Example 3]
Reply text: 8.30
